assayed.system: IGF-1R (Homo sapiens)
Construct: expressed in transfected cells
procedure.details: Example B-2: IGF-1R Assay (PathHunter cell lines, EC80 agonist challenge, chemiluminescent detection)
Type: cell-based
cond: PathHunter cells, compound 60 minutes at 37° C., EC80 agonist 3 hours; read-out: IC50, Biological Activity against IGF-1R (Table B2)
Method: PathHunter cell lines were expanded from freezer stocks according to standard procedures. Cells were seeded in a total volume of 20 μL into white walled, 384-well microplates and incubated for the appropriate time prior to testing. Cells are pre-incubated with compound followed by EC80 agonist challenge as follows: • R. 1. […] Compound activity was analyzed using CBIS data analysis suite (ChemInnovation, CA). […]
I'd appreciate it if you could supply IC50 values for the items below.

Input line: Record request: IC50 value, item CC1(C)C(=O)N(c2ccc(C3(C(F)(F)F)CCC3)cc2F)C(=O)N1Cc1ccnc2c1CC(=O)N2
Output line: ≤ 500 nM

Input line: Record request: IC50 value, item CC(C)Nc1cc(CN2C(=O)N(c3ccc(C(C)(C)C#N)nc3)C(=O)C2(C)C)ccn1
Output line: 500 to 2000 nM

Input line: Record request: IC50 value, item CC1Cc2c(CN3C(=O)N(c4ccc(C5(C(F)(F)F)CC5)cc4)C(=O)C3(C)C)ccnc2N1 (stereo not shown)
Output line: ≤ 500 nM

Input line: Record request: IC50 value, item CC1(C)C(=O)N(c2ccc(C3(C(F)(F)F)CC3)cc2)C(=O)N1Cc1ccnc(NCC2(C#N)CC2)c1
Output line: ≤ 500 nM

Input line: Record request: IC50 value, item CC1(C)C(=O)N(c2ccc3c(c2)N(S(C)(=O)=O)CC32CC2)C(=O)N1Cc1ccnc(NC2CCOCC2)c1
Output line: ≤ 500 nM

Input line: Record request: IC50 value, item CC1(C)C(=O)N(c2ccc(S(=O)(=O)C(F)(F)F)cc2)C(=O)N1Cc1ccnc(N[C@H]2CCOC[C@@H]2F)c1
Output line: 500 to 2000 nM

Input line: Record request: IC50 value, item CC(C)(O)c1ccc(N2C(=O)N(Cc3ccnc(N)c3)C(C)(C)C2=O)cc1
Output line: 2000 to 10000 nM

* * *

I'd appreciate it if you could supply IC50 values for the items below.
assayed.system: IGF-1R (Homo sapiens, UniProt P08069)
Construct: expressed in transfected cells
Sequence (P08069 31-1367): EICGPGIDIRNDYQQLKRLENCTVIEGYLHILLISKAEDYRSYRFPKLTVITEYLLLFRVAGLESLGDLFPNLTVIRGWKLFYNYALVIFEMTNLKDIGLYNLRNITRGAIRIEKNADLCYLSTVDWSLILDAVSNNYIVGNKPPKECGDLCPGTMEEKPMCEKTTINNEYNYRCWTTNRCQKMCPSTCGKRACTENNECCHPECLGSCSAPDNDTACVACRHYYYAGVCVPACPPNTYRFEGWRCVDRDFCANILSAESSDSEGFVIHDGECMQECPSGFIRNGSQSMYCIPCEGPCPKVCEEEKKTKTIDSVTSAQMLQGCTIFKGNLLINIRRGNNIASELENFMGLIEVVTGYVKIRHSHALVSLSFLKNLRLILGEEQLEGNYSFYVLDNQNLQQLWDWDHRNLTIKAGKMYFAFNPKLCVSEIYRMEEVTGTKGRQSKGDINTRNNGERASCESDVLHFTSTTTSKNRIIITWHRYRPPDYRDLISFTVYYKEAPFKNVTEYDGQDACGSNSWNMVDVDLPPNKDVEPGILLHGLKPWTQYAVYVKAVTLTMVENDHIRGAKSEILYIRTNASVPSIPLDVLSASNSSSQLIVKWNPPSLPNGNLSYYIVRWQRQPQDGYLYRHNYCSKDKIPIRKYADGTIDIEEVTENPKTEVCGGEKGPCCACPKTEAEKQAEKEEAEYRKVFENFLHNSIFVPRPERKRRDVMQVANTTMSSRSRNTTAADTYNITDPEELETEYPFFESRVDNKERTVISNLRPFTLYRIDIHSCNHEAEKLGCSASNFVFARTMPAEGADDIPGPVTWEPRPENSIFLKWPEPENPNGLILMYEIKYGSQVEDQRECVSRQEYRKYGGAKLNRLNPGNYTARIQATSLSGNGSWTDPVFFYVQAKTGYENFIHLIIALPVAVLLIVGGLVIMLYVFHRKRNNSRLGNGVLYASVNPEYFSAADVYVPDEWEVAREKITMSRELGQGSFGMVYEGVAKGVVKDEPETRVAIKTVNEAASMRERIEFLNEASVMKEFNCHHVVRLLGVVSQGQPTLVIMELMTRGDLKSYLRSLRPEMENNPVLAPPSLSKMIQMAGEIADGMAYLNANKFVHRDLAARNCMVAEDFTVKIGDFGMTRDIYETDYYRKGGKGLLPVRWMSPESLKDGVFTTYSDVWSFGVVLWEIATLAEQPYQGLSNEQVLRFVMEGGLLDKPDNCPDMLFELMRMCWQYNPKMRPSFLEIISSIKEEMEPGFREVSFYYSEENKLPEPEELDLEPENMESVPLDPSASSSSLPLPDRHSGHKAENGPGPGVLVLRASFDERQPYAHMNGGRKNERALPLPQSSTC
procedure.details: Example B-2: IGF-1R Assay (PathHunter cell lines, EC80 agonist challenge, chemiluminescent detection)
Assay type: cell-based
cond: PathHunter cells, compound 60 minutes at 37° C., EC80 agonist 3 hours; read-out: IC50, Biological Activity against IGF-1R (Table B2)

Input line: Record request: IC50 value, item C[C@H](Nc1cc(CN2C(=O)N(c3ccc(S(=O)(=O)C(F)(F)F)cc3)C(=O)C2(C)C)ccn1)[C@H]1CCCO1
Output line: 2000 to 10000 nM

Input line: Record request: IC50 value, item CC1(C)C(=O)N(c2ccc(S(=O)(=O)C(F)(F)F)cc2)C(=O)N1Cc1ccnc(N[C@H]2CCOCC2(F)F)c1
Output line: 2000 to 10000 nM

Input line: Record request: IC50 value, item CC(Nc1cc(CN2C(=O)N(c3ccc(C4(C(F)(F)F)CC4)cc3)C(=O)C2(C)C)ccn1)c1cccnc1 (centres unmarked)
Output line: ≤ 500 nM

Input line: Record request: IC50 value, item CC(C)Nc1nccc(CN2C(=O)N(c3ccc(SC(F)(F)F)cc3)C(=O)C2(C)C)c1Br
Output line: ≤ 500 nM

Input line: Record request: IC50 value, item CC1(C)C(=O)N(c2ccc(SC(F)(F)F)cc2)C(=O)N1Cc1ccnc(NC(=O)Nc2cccc(F)c2)c1
Output line: ≤ 500 nM

Input line: Record request: IC50 value, item CC1C(=O)Nc2nccc(CN3C(=O)N(c4ccc(C5(C(F)(F)F)CC5)cc4)C(=O)C3(C)C)c21 (centres unmarked)
Output line: ≤ 500 nM

Input line: Record request: IC50 value, item CC(Nc1cc(CN2C(=O)N(c3ccc(C4(C(F)(F)F)CC4)cc3)C(=O)C2(C)C)ccn1)c1cnccn1 (centres unmarked)
Output line: ≤ 500 nM

Input line: Record request: IC50 value, item COC[C@@H](C)Nc1cc(CN2C(=O)N(c3ccc4c(c3)N(S(C)(=O)=O)CC43CC3)C(=O)C2(C)C)ccn1
Output line: ≤ 500 nM

Input line: Record request: IC50 value, item CC(C)Nc1cc(CN2C(=O)N(c3ccc4c(c3)N(C)C(=O)C4(C)C)C(=O)C2(C)C)ccn1
Output line: 2000 to 10000 nM

Input line: Record request: IC50 value, item CC1(C)C(=O)N(c2ccc3c(c2)OC(F)(F)C32CC2)C(=O)N1Cc1ccnc2c1CC(=O)N2
Output line: 2000 to 10000 nM

Input line: Record request: IC50 value, item CC1(C)Cc2ccc(N3C(=O)N(Cc4ccnc(N[C@H]5[C@@H]6COC[C@@H]65)c4)C(C)(C)C3=O)cc2O1
Output line: ≤ 500 nM

Input line: Record request: IC50 value, item CC1(C)C(=O)N(c2ccc(S(=O)(=O)C(F)(F)F)cc2)C(=O)N1Cc1ccnc(NC2CCN(S(C)(=O)=O)CC2)c1
Output line: 500 to 2000 nM

Input line: Record request: IC50 value, item COC(C)CNc1cc(CN2C(=O)N(c3ccc(C4(C(F)(F)F)CC4)cc3)C(=O)C2(C)C)ccn1 (centres unmarked)
Output line: ≤ 500 nM

Input line: Record request: IC50 value, item Cn1ccc(CNc2cc(CN3C(=O)N(c4ccc5c(c4)N(S(C)(=O)=O)CC5(C)C)C(=O)C3(C)C)ccn2)n1
Output line: ≤ 500 nM

* * *

I'd appreciate it if you could supply pIC50 values for the items below.
assayed.system: IGF-1R (Homo sapiens)
Construct: expressed in transfected cells
procedure.details: Example B-2: IGF-1R Assay (PathHunter cell lines, EC80 agonist challenge, chemiluminescent detection)
Assay type: cell-based
cond: PathHunter cells, compound 60 minutes at 37° C., EC80 agonist 3 hours; read-out: IC50, Biological Activity against IGF-1R (Table B2)
pIC50: −log10 of the molar value.

Input line: Record request: pIC50 value, item CC1(C)C(=O)N(c2cc3c(cc2Br)C2(CCC2)CO3)C(=O)N1Cc1ccnc2c1CC(=O)N2 [Compound 52]
Output line: ≥ 6.30

Input line: Record request: pIC50 value, item CC(C)(C)c1ccc(N2C(=O)N(Cc3ccnc4c3CC(=O)N4)C(C)(C)C2=O)cc1 [Compound 36]
Output line: ≥ 6.30

Input line: Record request: pIC50 value, item CC(C)Nc1cc(CN2C(=O)N(c3ccc(C4(C#N)CC4(C)C)cc3)C(=O)C2(C)C)ccn1 (stereo not shown) [Compound 145]
Output line: ≥ 6.30

Input line: Record request: pIC50 value, item CC(C)(C#N)c1ccc(N2C(=O)N(Cc3ccnc(NC4CCOCC4)c3)C(C)(C)C2=O)cc1 [Compound 153]
Output line: ≥ 6.30

Input line: Record request: pIC50 value, item CC(C)Nc1cc(CN2C(=O)N(c3ccc4c(c3)C(O)(O)C(F)(F)S4(=O)=O)C(=O)C2(C)C)ccn1 [Compound 192]
Output line: < 5.00

Input line: Record request: pIC50 value, item C[C@@H](CC#N)Nc1cc(CN2C(=O)N(c3ccc(S(=O)(=O)C(F)(F)F)cc3)C(=O)C2(C)C)ccn1 [Compound 321]
Output line: 5.70 to 6.30

Input line: Record request: pIC50 value, item CC1(C)C(=O)N(c2ccc(S(=O)(=O)C(F)(F)F)cc2)C(=O)N1Cc1ccnc(NC2CC2)c1 [Compound 356]
Output line: ≥ 6.30

* * *

I'd appreciate it if you could supply IC50 values for the items below.
assayed.system: IGF-1R (Homo sapiens)
Construct: expressed in transfected cells
procedure.details: Example B-2: IGF-1R Assay (PathHunter cell lines, EC80 agonist challenge, chemiluminescent detection)
Format: cell-based
cond: PathHunter cells, compound 60 minutes at 37° C., EC80 agonist 3 hours; read-out: IC50, Biological Activity against IGF-1R (Table B2)

Input line: Record request: IC50 value, item CC(C)Nc1cc(CN2C(=O)N(c3ccc4c(c3)S(=O)(=O)CC4(C)C)C(=O)C2(C)C)ccn1 [Compound 190]
Output line: 2000 to 10000 nM

Input line: Record request: IC50 value, item CC1(C)C(=O)N(c2ccc(C3(C(F)(F)F)CC3)cc2)C(=O)N1Cc1ccnc(NC2CCS(=O)(=O)C2)c1 (centres unmarked) [Compound 136]
Output line: 500 to 2000 nM

Input line: Record request: IC50 value, item COC[C@@H](C)Nc1cc(CN2C(=O)N(c3ccc(S(=O)(=O)C(F)(F)F)cc3)C(=O)C2(C)C)ccn1 [Compound 318]
Output line: ≤ 500 nM

Input line: Record request: IC50 value, item C[C@@H](Nc1cc(CN2C(=O)N(c3ccc4c(c3)N(S(C)(=O)=O)CC43CCC3)C(=O)C2(C)C)ccn1)c1cccnc1 [Compound 242]
Output line: ≤ 500 nM

Input line: Record request: IC50 value, item COCCC(C)Nc1cc(CN2C(=O)N(c3ccc4c(c3)N(S(C)(=O)=O)CC4(C)C)C(=O)C2(C)C)ccn1 (centres unmarked) [Compound 219]
Output line: ≤ 500 nM

Input line: Record request: IC50 value, item CC1(C)C(=O)N(c2ccc(OC(F)(F)F)c(N3CCOCC3)c2)C(=O)N1Cc1ccnc2c1CC(=O)N2 [Compound 74]
Output line: ≤ 500 nM

Input line: Record request: IC50 value, item CC(C)Nc1cc(CN2C(=O)N(c3ccc(S(=O)(=O)C(C)(C)C)cc3)C(=O)C2(C)C)ccn1 [Compound 354]
Output line: 500 to 2000 nM

Input line: Record request: IC50 value, item CC(C)Nc1cc(CN2C(=O)N(c3ccc(S(=O)(=O)C4CC4)cc3)C(=O)C2(C)C)ccn1 [Compound 353]
Output line: 500 to 2000 nM

Input line: Record request: IC50 value, item CC1(C)C(=O)N(c2ccc(S(=O)(=O)C(F)(F)F)cc2)C(=O)N1Cc1ccnc(N[C@H]2CCOC2)c1 [Compound 320]
Output line: ≤ 500 nM

Input line: Record request: IC50 value, item CC1(C)C(=O)N(c2ccc(C3(C(F)(F)F)CC3)cc2)C(=O)N1Cc1ccnc(NCc2ccncn2)c1 [Compound 181]
Output line: ≤ 500 nM

Input line: Record request: IC50 value, item CC(C)Nc1cc(CN2C(=O)N(c3ccc(C4(C)CC4(F)F)cc3)C(=O)C2(C)C)ccn1 (centres unmarked) [Compound 124]
Output line: ≤ 500 nM

Input line: Record request: IC50 value, item COC[C@@H](C)Nc1cc(CN2C(=O)N(c3ccc4c(c3)N(S(C)(=O)=O)CC43CCC3)C(=O)C2(C)C)ccn1 [Compound 205]
Output line: ≤ 500 nM

Input line: Record request: IC50 value, item CC1(C)C(=O)N(c2ccc3c(c2)N(C(=O)C2CC2)CC3)C(=O)N1Cc1ccnc(N[C@H]2[C@@H]3COC[C@@H]32)c1 [Compound 252]
Output line: > 10000 nM

Input line: Record request: IC50 value, item CC1(C)C(=O)N(c2ccc(C(F)(F)F)c(C#N)c2)C(=O)N1Cc1ccnc(N[C@H]2[C@@H]3COC[C@@H]32)c1 [Compound 180]
Output line: > 10000 nM
